Listed below: apparent Kd (screen) values for each entry.
tgt: T1, TNFR1 (Homo sapiens, UniProt P19438)
T1 chain: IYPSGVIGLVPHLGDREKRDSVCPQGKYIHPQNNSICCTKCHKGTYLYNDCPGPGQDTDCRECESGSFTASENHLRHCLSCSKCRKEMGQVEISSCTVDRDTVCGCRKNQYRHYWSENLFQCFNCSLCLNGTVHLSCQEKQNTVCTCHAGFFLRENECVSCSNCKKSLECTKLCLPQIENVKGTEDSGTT
experimentDescription: yeast display SC50
valueKind: apparent Kd (screen) (nM)

[[record]]
binder = "A35S (designed binder) SMEEEVEKAAKEYEKKKKEAIEKHLEKLKAKDKESAERFLKELEEAAKEYAKDEAKTMSEEEAKRRAKKYKEKVLLSELSEEEQKEIKEAEEKLVRTILKYVEEAAK"
valuekind = "apparent Kd (screen)"
measurementunits = "nM"
testvalue = 0.79

[[record]]
binder = "E72K (designed binder) SMEEEVEKAAKEYEKKKKEAIEKHLEKLKAKDKEAAERFLKELEEAAKEYAKDEAKTMSEEEAKRRAKKYKKKVLLSELSEEEQKEIKEAEEKLVRTILKYVEEAAK"
valuekind = "apparent Kd (screen)"
measurementunits = "nM"
testvalue = 9.41

[[record]]
binder = "V102G (designed binder) SMEEEVEKAAKEYEKKKKEAIEKHLEKLKAKDKEAAERFLKELEEAAKEYAKDEAKTMSEEEAKRRAKKYKEKVLLSELSEEEQKEIKEAEEKLVRTILKYGEEAAK"
valuekind = "apparent Kd (screen)"
measurementunits = "nM"
testvalue = 0.446

[[record]]
binder = "E34V (designed binder) SMEEEVEKAAKEYEKKKKEAIEKHLEKLKAKDKVAAERFLKELEEAAKEYAKDEAKTMSEEEAKRRAKKYKEKVLLSELSEEEQKEIKEAEEKLVRTILKYVEEAAK"
valuekind = "apparent Kd (screen)"
measurementunits = "nM"
testvalue = 0.446

